Biological target: SARS-CoV-2 nsp14/nsp10 complex (Severe acute respiratory syndrome coronavirus 2)
Construct: full-length mature nsp14 and nsp10 cut from replicase polyprotein 1ab; co-expressed from one pRSF-Duet-1 plasmid in E. coli BL21Gold (DE3), C-terminal 6xHis; with Non-structural protein 10
Experiment: biochemical
compounds and their reported Kd

Some entries whose results are on file:
CC(C)N(CCCNC(=O)Nc1ccc(C(C)(C)C)cc1)C[C@H]1O[C@@H](n2cc(Br)c3c(N)ncnc32)[C@H](O)[C@@H]1O :: ~8 µM
C[S+](CC[C@H](N)C(=O)O)C[C@H]1O[C@@H](n2cnc3c(N)ncnc32)[C@H](O)[C@@H]1O (stereo partly shown) :: ~6 µM
Nc1ncnc2c1ncn2[C@@H]1O[C@H](CSCCCCNCc2cccc(-c3ccc(Cl)cc3)c2)[C@@H](O)[C@H]1O :: ~6 µM

Would you kindly look at the next entry?
[ask] Kd of `Nc1nc2c(ncn2[C@@H]2O[C@H](COP(=O)(O)OP(=O)(O)OP(=O)(O)OC[C@H]3O[C@@H](n4cnc5c(N)ncnc54)[C@H](O)[C@@H]3O)[C@@H](O)[C@H]2O)c(=O)[nH]1` on SARS-CoV-2 nsp14/nsp10 complex (Severe acute respiratory syndrome coronavirus 2)?
[reply] 20 µM
